Provide the recorded IC50 for the entries that follow.
target-of-assay: PDE5A1 (Homo sapiens)
Construct: from tissue; host or cells: human platelets from fresh donor blood (10,000 x g supernatant of sonicated lysate)
assay-protocol: Inhibition of type 5 phosphodiesterase (PDE5) activity, modified SPA test with human platelet lysate
Format: biochemical
test-settings: 0.5 μM cGMP, read-out: PDE5A1 inhibitory values [measured as −log IC50 (mol/l)] (converted)

(Q) Give IC50 (PDE5A1 (Homo sapiens)) of the following compound: Cc1[nH]c2c(-c3cc(C(F)(F)F)ccc3OCC3CC3)ncnc2c1C(=O)N[C@H]1CC[C@@H](NC(=O)CO)CC1
(A) < 1 nM

(Q) What would you report for CC(=O)c1ccc(OCC2CC2)c(-c2ncnc3c(C(=O)NC4CCN(C(=O)CO)CC4)c(C)[nH]c23)c1 ?
(A) < 1 nM

(Q) Similarly, Cc1ccc(OCC2CC2)c(-c2nc(C)nc3c(C(=O)NC4CCN(C(=O)CO)CC4)c(C)[nH]c23)c1 ?
(A) < 1 nM

(Q) Another compound to look at: COc1cc(-c2nc(C)nc3c(C(=O)NC4CCN(C(=O)CO)CC4)c(C)[nH]c23)c(OCC2CC2)cc1F
(A) < 1 nM

(Q) Same question for COc1cc(OCC2CC2)c(-c2ncnc3c(C(=O)N[C@H]4CC[C@@H](NC(C)=O)CC4)c(C)[nH]c23)cc1F please.
(A) < 1 nM

(Q) One more compound: COCC(=O)N[C@H]1CC[C@@H](NC(=O)c2c(C)[nH]c3c(-c4ccc(F)cc4OCC4CC4)ncnc23)CC1
(A) < 1 nM

(Q) Next entry: COc1cc(-c2nc(C)nc3c(C(=O)NC4CCN(C(C)=O)CC4)c(C)[nH]c23)c(OCC2CC2)cc1F
(A) < 1 nM

(Q) Another: COc1cc(OCC2CC2)c(-c2ncnc3c(C(=O)N[C@@H]4CN(C(=O)[C@H](C)O)C[C@H]4O)c(C)[nH]c23)cc1F (relative stereo)
(A) < 1 nM

(Q) Similarly, COCC(=O)N1CC[C@@H](NC(=O)c2c(C)[nH]c3c(-c4cc(F)ccc4OCC4CC4)ncnc23)[C@H](O)C1 (relative stereo) ?
(A) 1 to 10 nM

(Q) Request: CC(=O)N[C@H]1CC[C@@H](NC(=O)c2c(C)[nH]c3c(-c4cc(C(F)(F)F)ccc4OCC4CC4)ncnc23)CC1
(A) < 1 nM

(Q) What do you have for Cc1ccc(OCC2CC2)c(-c2ncnc3c(C(=O)N[C@H]4CC[C@H](NC(=O)CO)CC4)c(C)[nH]c23)c1 ?
(A) < 1 nM
